Listed next: entries and their corresponding pKi.
# study_target: Leukotriene D4 (LTD4) receptor (Cavia porcellus, UniProt Q2NNR5)
# Construct: lung cell membrane fractions of guinea pigs were used; from tissue; host or cells: lung membrane fractions of Hartley strain male guinea pigs
# Sequence (Q2NNR5 1-340): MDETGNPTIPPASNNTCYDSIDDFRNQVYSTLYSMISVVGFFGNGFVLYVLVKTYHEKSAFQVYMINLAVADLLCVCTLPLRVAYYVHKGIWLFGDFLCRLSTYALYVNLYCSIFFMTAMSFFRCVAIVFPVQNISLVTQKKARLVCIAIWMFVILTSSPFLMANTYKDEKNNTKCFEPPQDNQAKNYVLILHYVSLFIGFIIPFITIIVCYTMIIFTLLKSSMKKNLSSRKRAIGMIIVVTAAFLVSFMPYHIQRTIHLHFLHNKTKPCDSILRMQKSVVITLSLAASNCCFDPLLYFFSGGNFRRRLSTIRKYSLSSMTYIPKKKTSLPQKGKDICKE
# procedure_summary: Leukotriene D4 receptor binding test ([3H]ICI-198615 displacement, lung cell membrane fractions)
# experimental_context: pKi value, guinea pig lung membranes; [3H]ICI-198615 about 0.2 nM; pKi=-log Ki
pKi: −log10 of the molar value.

compound | study_target | pKi
N#Cc1cccc2c1COc1ccc(OCc3ccc4ccc(Cl)cc4n3)cc1C2SCCC(=O)O (stereo not drawn) | Leukotriene D4 (LTD4) receptor (Cavia porcellus, UniProt Q2NNR5) | 9.20
O=C(O)CCSC1c2ccccc2COc2ccc(OCc3ccc4ccc(F)cc4n3)cc21 (stereo not drawn) | Leukotriene D4 (LTD4) receptor (Cavia porcellus, UniProt Q2NNR5) | 8.80
O=C(O)CCSC1c2ccccc2COc2ccc(OCc3ccc4ccc(Cl)cc4n3)cc21 (single isomer, unassigned; (+)) [Example 52] | Leukotriene D4 (LTD4) receptor (Cavia porcellus, UniProt Q2NNR5) | 9.50
O=C(O)CSC1c2ccccc2COc2ccc(OCc3ccc4ccc(Cl)cc4n3)cc21 (stereo not drawn) | Leukotriene D4 (LTD4) receptor (Cavia porcellus, UniProt Q2NNR5) | 9.10
NC(=O)c1cccc2c1COc1ccc(OCc3ccc4ccc(Cl)cc4n3)cc1C2SCCC(=O)O (stereo not drawn) | Leukotriene D4 (LTD4) receptor (Cavia porcellus, UniProt Q2NNR5) | 9.20
CC(=O)CCc1ccc2c(c1)COc1ccc(OCc3ccc4cc(F)c(Cl)cc4n3)cc1C2SCCC(=O)O (stereo not drawn) | Leukotriene D4 (LTD4) receptor (Cavia porcellus, UniProt Q2NNR5) | 9.70

====

# study_target: Leukotriene D4 (LTD4) receptor (Cavia porcellus)
# Construct: lung cell membrane fractions of guinea pigs were used; from tissue; host or cells: lung membrane fractions of Hartley strain male guinea pigs
# Sequence (Q2NNR5 1-340): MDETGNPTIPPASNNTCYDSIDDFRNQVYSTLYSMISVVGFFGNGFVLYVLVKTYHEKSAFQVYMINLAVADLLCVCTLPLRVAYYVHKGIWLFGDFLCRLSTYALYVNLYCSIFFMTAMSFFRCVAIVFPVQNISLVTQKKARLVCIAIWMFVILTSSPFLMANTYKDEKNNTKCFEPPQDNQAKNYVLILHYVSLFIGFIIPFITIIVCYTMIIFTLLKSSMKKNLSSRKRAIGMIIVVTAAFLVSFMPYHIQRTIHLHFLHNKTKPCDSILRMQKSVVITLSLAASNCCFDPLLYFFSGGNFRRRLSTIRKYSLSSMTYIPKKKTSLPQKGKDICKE
# procedure_summary: Leukotriene D4 receptor binding test ([3H]ICI-198615 displacement, lung cell membrane fractions)
# experimental_context: pKi value, guinea pig lung membranes; [3H]ICI-198615 about 0.2 nM; pKi=-log Ki

compound | study_target | Ki, nM
Clc1ccc2ccc(COc3ccc4c(c3)C(SCCc3nn[nH]n3)c3ccccc3CO4)nc2c1 (stereo not shown) [Example 30] | Leukotriene D4 (LTD4) receptor (Cavia porcellus) | 2
COc1ccc2c(c1)COc1ccc(OCc3ccc4ccc(Cl)cc4n3)cc1C2SCCC(=O)O (stereo not shown) [Example 13] | Leukotriene D4 (LTD4) receptor (Cavia porcellus) | 0.794
O=C(O)CCSC1c2ccc(-c3nn[nH]n3)cc2COc2ccc(OCc3ccc4ccc(Cl)cc4n3)cc21 (stereo not shown) [Example 18] | Leukotriene D4 (LTD4) receptor (Cavia porcellus) | 0.2
O=C(O)CCSC1c2ccccc2COc2ccc(OCc3ccc4cc(Cl)ccc4n3)cc21 (stereo not shown) [Example 5] | Leukotriene D4 (LTD4) receptor (Cavia porcellus) | 3.16

====

# study_target: Leukotriene D4 (LTD4) receptor (Cavia porcellus)
# Construct: lung cell membrane fractions of guinea pigs were used; from tissue; host or cells: lung membrane fractions of Hartley strain male guinea pigs
# procedure_summary: Leukotriene D4 receptor binding test ([3H]ICI-198615 displacement, lung cell membrane fractions)
# experimental_context: pKi value, guinea pig lung membranes; [3H]ICI-198615 about 0.2 nM; pKi=-log Ki

compound | study_target | unit_of_measurement | Ki
O=C(O)CCSC1c2ccc(SCC(=O)O)cc2COc2ccc(OCc3ccc4ccc(Cl)cc4n3)cc21 (stereo not shown) | Leukotriene D4 (LTD4) receptor (Cavia porcellus) | nM | 0.631
O=C(O)CCSC1c2ccc(Br)cc2COc2ccc(OCc3ccc4ccc(Cl)cc4n3)cc21 (stereo not shown) | Leukotriene D4 (LTD4) receptor (Cavia porcellus) | nM | 3.16
O=C(O)CCSC1c2ccccc2COc2ccc(OCc3ccc4cc(F)c(Cl)cc4n3)cc21 (single isomer, unassigned; (-)) [Example 51] | Leukotriene D4 (LTD4) receptor (Cavia porcellus) | nM | 1.26
O=C(O)CCSC1c2ccccc2COc2ccc(OCc3ccc4cc(F)ccc4n3)cc21 (stereo not shown) | Leukotriene D4 (LTD4) receptor (Cavia porcellus) | nM | 3.16
O=C(O)CCSC1c2ccccc2COc2ccc(OCc3ccc4cc(F)c(Cl)cc4n3)cc21 (single isomer, unassigned; (+)) [Example 50] | Leukotriene D4 (LTD4) receptor (Cavia porcellus) | nM | 0.0794
O=C(O)CCSC1c2cc(OCc3ccc4ccc(Cl)cc4n3)ccc2OCc2c(-c3nn[nH]n3)cccc21 (stereo not shown) | Leukotriene D4 (LTD4) receptor (Cavia porcellus) | nM | 0.501
Cc1cccc2c1C(SCCC(=O)O)c1cc(OCc3ccc4ccc(Cl)cc4n3)ccc1OC2 (stereo not shown) | Leukotriene D4 (LTD4) receptor (Cavia porcellus) | nM | 5.01
